Test system: MDA-MB-435 melanoma
Experiment: NCI-60 one-dose screen, 48 h (100 = growth as untreated, 0 = no growth, -100 = all killed)
Settings: 10 µM unless noted
This is part of a sample that, as a whole, favours compounds with a hit. Of some 83,000 tested, about 20% had one in any assay. Calls of active or inactive are those of the source. How the source made its calls: active means growth percent below 10; inactive means the rest.
value kind: growth

Known results for compounds:
Cc1ccc(Nc2cc(N)nc(N)n2)cc1 ... 106% (inactive)
Oc1ccc(C2OCCO2)c2cccnc12 ... 49.4% (inactive)
COc1cccc(/C=C2\CCc3ccccc3C2=O)c1 ... 58.2% (inactive)
CC(=O)Oc1ccccc1C(=O)N(Cc1ccc2c(Cl)cc(Cl)c(O)c2n1)c1ccccc1 ... 54.3% (inactive)
C#Cc1c(I)n(C2OC(CO[Si](C)(C)C(C)(C)C)C3OC(C)(C)OC32)c(=O)[nH]c1=O (stereo not given) ... 81.2% (inactive)
CCCCCN(CCCCC)CC(O)c1c(Cl)ccc2ccccc12 (stereo not given) ... 84.2% (inactive)
O=C(Nc1ccccc1)Nc1ccccc1CNc1nc(Nc2ccc(OCCN3CCCC3)cc2)ncc1Cl ... 55.2% (inactive)
O=C(/C=C/c1cccc([N+](=O)[O-])c1)c1ccc(Nc2nc(Nc3ccc(F)cc3)nc(Nc3ccc(Cl)cc3)n2)cc1 ... 102% (inactive)

# query: growth of entry Nc1ccc(Cl)c2c(=O)c3ccccc3[nH]c12
86.3% (inactive)

Entry COc1ccc(-c2nc(SCCC(C)C)nc(N/N=C(/C)c3ccc(N)cc3)c2C#N)cc1 please
104% (inactive)
